tgt: Adenosine receptor A1 (Homo sapiens, UniProt P30542)
Sequence (P30542 whole entry): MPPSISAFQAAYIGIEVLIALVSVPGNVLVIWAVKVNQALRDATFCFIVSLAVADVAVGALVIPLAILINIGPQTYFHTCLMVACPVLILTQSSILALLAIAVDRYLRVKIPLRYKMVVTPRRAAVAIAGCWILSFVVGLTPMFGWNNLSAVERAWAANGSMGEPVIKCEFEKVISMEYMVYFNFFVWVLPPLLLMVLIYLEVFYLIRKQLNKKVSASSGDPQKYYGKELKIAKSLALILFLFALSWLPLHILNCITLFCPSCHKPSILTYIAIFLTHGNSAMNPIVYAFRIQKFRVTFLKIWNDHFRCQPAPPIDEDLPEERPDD
runDescription: Displacement of [3H]N6-phenylisopropyladenosine from recombinant human A1AR expressed in CHO cell membranes after 60 mins by liquid scintillation counting method
pKi: −log10 of the molar value.
readout: pKi

| recordSmiles | tgt | endpointResult |
| --- | --- | --- |
| CC(C)[C@H](Nc1nc(Cl)nc2c1ncn2[C@H]1[C@H](O)[C@H](O)[C@]2(CO)C[C@H]12)C1CC1 | Adenosine receptor A1 (Homo sapiens, UniProt P30542) | 6.98 |
| CC[C@@H](Nc1nc(Cl)nc2c1ncn2[C@H]1[C@H](O)[C@H](O)[C@]2(CO)C[C@H]12)C1CC1 | Adenosine receptor A1 (Homo sapiens, UniProt P30542) | 7.12 |
| COC(=O)[C@@]12C[C@@H]1[C@@H](n1cnc3c(NC(C4CC4)C4CC4)nc(Cl)nc31)[C@H](O)[C@@H]2O | Adenosine receptor A1 (Homo sapiens, UniProt P30542) | 6.36 |
| OC[C@@]12C[C@@H]1[C@@H](n1cnc3c(N[C@H](C4CCC4)C4CC4)nc(Cl)nc31)[C@H](O)[C@@H]2O | Adenosine receptor A1 (Homo sapiens, UniProt P30542) | 6.53 |
